# MEASURED TARGET: Acylpeptide hydrolase from Sulfolobus solfataricus (Sulfolobus solfataricus)
# Sequence (Q7LX61 entry or part of it): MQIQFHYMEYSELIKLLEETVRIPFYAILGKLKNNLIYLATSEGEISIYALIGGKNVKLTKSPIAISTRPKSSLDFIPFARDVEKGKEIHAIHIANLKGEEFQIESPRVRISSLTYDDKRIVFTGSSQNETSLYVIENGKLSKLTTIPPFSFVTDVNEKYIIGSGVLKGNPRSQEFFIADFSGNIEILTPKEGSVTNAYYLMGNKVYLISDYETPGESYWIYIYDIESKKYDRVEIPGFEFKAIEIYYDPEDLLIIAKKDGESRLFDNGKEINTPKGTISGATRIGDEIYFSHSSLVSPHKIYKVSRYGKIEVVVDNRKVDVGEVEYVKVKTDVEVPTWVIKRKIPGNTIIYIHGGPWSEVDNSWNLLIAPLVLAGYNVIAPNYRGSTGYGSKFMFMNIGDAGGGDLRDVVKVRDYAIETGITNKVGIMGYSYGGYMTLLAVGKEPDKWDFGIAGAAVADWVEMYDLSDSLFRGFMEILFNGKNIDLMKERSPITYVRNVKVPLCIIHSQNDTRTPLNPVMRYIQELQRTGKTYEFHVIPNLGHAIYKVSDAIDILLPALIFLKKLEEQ
# ASSAY: enzyme inhibition kinetics (Lineweaver-Burk); APEHSs pre-incubated with the peptide 30 min at 80°C, 25 mM Tris-HCl pH 7.5, substrate acetyl-Leu-pNA; competitive inhibition
MEASURED ENDPOINT: Ki (µM)

# BINDER, NUMERIC READOUT
records = [
    ("H-TILLEIKNINAD-NH2 [SsCEI 2]", 1),
]
